ASSAY EXPLANATION: Plasma levels after transdermal administration to hairless mice
Type: in vivo
RECORDED CONDITIONS: mouse, in vivo
Description: Tested compounds (20% solution or suspension in 1 mL isopropanol) are administered transdermally to the skin of intact hairless mice. The plasma levels of the parent compounds are determined by HPLC.
RECORDED METRIC: t, time to peak plasma level of parent compound after prodrug compound (min)

MOLECULE: C=CCOc1ccc(CC(=O)OCCN(CC)CC)cc1Cl.CC(=O)O
MEASURE UNIT: min
OBSERVED: 50
//
MOLECULE: CC(=O)O.CCN(CC)CCOC(=O)C(C)c1cccc(C(=O)c2ccccc2)c1 (centres unmarked)
MEASURE UNIT: min
OBSERVED: 40
//
MOLECULE: CC(=O)O.CCN(CC)CCOC(=O)C(C)c1ccc(CC2CCCC2=O)cc1 (centres unmarked)
MEASURE UNIT: min
OBSERVED: 50
//
MOLECULE: CC(=O)O.CCN(CC)CCOC(=O)C(C)c1ccc(C(=O)c2cccs2)cc1 (centres unmarked)
MEASURE UNIT: min
OBSERVED: 50
//
MOLECULE: CC(=O)O.CCN(CC)CCOC(=O)CC(O)c1ccc(-c2ccc(Cl)cc2)o1 (centres unmarked)
MEASURE UNIT: min
OBSERVED: 50
//
MOLECULE: CC(=O)O.CCN(CC)CCOC(=O)C(C)c1ccc2oc(-c3ccc(Cl)cc3)nc2c1 (centres unmarked)
MEASURE UNIT: min
OBSERVED: 50
//
MOLECULE: CC(=O)O.CCN(CC)CCOC(=O)c1ccccc1Nc1c(Cl)ccc(C)c1Cl
MEASURE UNIT: min
OBSERVED: 50
//
MOLECULE: CC(=O)O.CCN(CC)CCOC(=O)Cc1sc(-c2ccccc2)nc1-c1ccc(Cl)cc1
MEASURE UNIT: min
OBSERVED: 50
//
MOLECULE: CC(=O)O.CCN(CC)CCOC(=O)C(C)c1ccc(C(=O)c2ccccc2)s1 (centres unmarked)
MEASURE UNIT: min
OBSERVED: 50
//
MOLECULE: CC(=O)O.CCN(CC)CCOC(=O)C(C)c1ccc2c(c1)Cc1cccnc1O2 (centres unmarked)
MEASURE UNIT: min
OBSERVED: 50
//
MOLECULE: CC(=O)O.CCN(CC)CCOC(=O)Cc1ccccc1Oc1ccc(Cl)cc1Cl
MEASURE UNIT: min
OBSERVED: 50
//
MOLECULE: CC(=O)O.CCc1cccc2c3c([nH]c12)C(CC)(CC(=O)OCCN(CC)CC)OCC3 (centres unmarked)
MEASURE UNIT: min
OBSERVED: 50
//
MOLECULE: CC(=O)O.CCN(CC)CCOC(=O)c1cccnc1Nc1cccc(C(F)(F)F)c1C
MEASURE UNIT: min
OBSERVED: 50
//
MOLECULE: CC(=O)O.CCN(CC)CCOC(=O)C(C)c1cccc(Oc2ccccc2)c1 (centres unmarked)
MEASURE UNIT: min
OBSERVED: 40
//
MOLECULE: CC(=O)O.CCN(CC)CCOC(=O)C(C)c1ccc(CC(C)C)cc1 (centres unmarked)
MEASURE UNIT: min
OBSERVED: 30
//
MOLECULE: CC(=O)O.CCN(CC)CCOC(=O)CCC(=O)c1ccc(-c2ccccc2)cc1
MEASURE UNIT: min
OBSERVED: 50
//
MOLECULE: CC(=O)O.CCN(CC)CCOC(=O)c1ccccc1Nc1cccc(C)c1C
MEASURE UNIT: min
OBSERVED: 50
//
MOLECULE: CC(=O)O.CCN(CC)CCOC(=O)C(C)c1ccc(N2Cc3ccccc3C2=O)cc1 (centres unmarked)
MEASURE UNIT: min
OBSERVED: 50
//
MOLECULE: CC(=O)O.CCN(CC)CCOC(=O)C1CCn2c(C(=O)c3ccccc3)ccc21 (centres unmarked)
MEASURE UNIT: min
OBSERVED: 50
//
MOLECULE: CC(=O)O.CCN(CC)CCOC(=O)C(C)c1ccc2c(c1)CC(=O)c1ccccc1S2 (centres unmarked)
MEASURE UNIT: min
OBSERVED: 50
//
MOLECULE: CCN(CC)CCOC(=O)c1ccccc1OC(C)=O [diethylaminoethyl acetylsalicylate.AcOH]
MEASURE UNIT: min
OBSERVED: 20
//
MOLECULE: CC(=O)O.CCN(CC)CCOC(=O)CC1=C(C)/C(=C/c2ccc([S+](C)[O-])cc2)c2ccc(F)cc21 (centres unmarked)
MEASURE UNIT: min
OBSERVED: 50
//
MOLECULE: CC(=O)O.CCN(CC)CCOC(=O)C(C)c1ccc(N2CC=CC2)c(Cl)c1 (centres unmarked)
MEASURE UNIT: min
OBSERVED: 50
//
MOLECULE: CC(=O)O.CCN(CC)CCOC(=O)Cc1cn(-c2ccccc2)nc1-c1ccc(Cl)cc1
MEASURE UNIT: min
OBSERVED: 50
//
MOLECULE: CC(=O)O.CCN(CC)CCOC(=O)c1ccccc1OC(=O)c1ccccc1O [diethylaminoethyl salicylsalicylate.AcOH]
MEASURE UNIT: min
OBSERVED: 30
//
MOLECULE: CC(=O)O.CCN(CC)CCOC(=O)c1cccnc1Nc1cccc(C(F)(F)F)c1
MEASURE UNIT: min
OBSERVED: 50
